Origin of the recorded values: the nanobody polyreactivity screen of Harvey et al. (2022)

- experimental details: yeast display, Sf9 membrane polyspecificity reagent, FACS + sequencing; frameworks hold sequencing errors
readout kind: polyreactivity (PSR sort gate)

// worked examples, polyreactivity (PSR sort gate) included
[
  {
    "monomer sequence": "QVQLVESGGGLVQAGGSLRLSCAASGFTVFYNAMGWYRQAPGKERELVAAITARGGGTYYADSVKGRFTISRDNAKNTVYLQMNSLKPEDTAVYYCAADSFIPPYDHWGQGTQVTVSS",
    "polyreactivity (PSR sort gate)": "low polyreactivity"
  },
  {
    "monomer sequence": "QVQLVESGGGLVQAGGSLRLSCAASGRTFRFYAMGWYRQAPGKERELVASISSSGGSTYYADSVKGRFTISRDNAKNTVYLQMNSLKPEDTAVYYCNADVTNWEDDYYYWGQGTQVTVSS",
    "polyreactivity (PSR sort gate)": "high polyreactivity"
  },
  {
    "monomer sequence": "QVQLVESGGGLVQAGGSLRLSCAASGIIFQRNAMGWYRQAPGKERELVAAISASGGSTNYADSVKGRFTISRDNAKNTVSLQMNSLKPEDTAVYYCAAEDDGDFDYWGQGTQVTVSS",
    "polyreactivity (PSR sort gate)": "low polyreactivity"
  },
  {
    "monomer sequence": "QVHLVESGGGLFQAGGSLRLSCAASGGIFSIYAMGWYRQAPGKERELVAAISTSGGSTYYADSLKGRFTISRDNAKNSVYLQMNSLKPEDTAVYYCNARRGFYWSWRGRYISGDYWGQGTQVTVSS",
    "polyreactivity (PSR sort gate)": "high polyreactivity"
  }
]

Then there is this sequence:
[in] Recorded polyreactivity (PSR sort gate) of `QVQLVESGGVLVQAGGSLRLSCAASGIIFYRNAMGWYRQAPGKERELVAAITSSGGRTYYADSVKGRFTISRDNAKNTVYLQMNSLKPEDTAVYYCAATRLYWKIFYGDGDYWGQGTQVTVSS` , please.
[out] high polyreactivity

----------
- experimental details: yeast display, Sf9 membrane polyspecificity reagent, FACS + sequencing; frameworks hold sequencing errors
readout kind: polyreactivity (PSR sort gate)

// worked examples, polyreactivity (PSR sort gate) included
[
  {
    "monomer sequence": "QVQLVESGVGLVQAGGSLRLSCAASGSTFRSNALGWYRQAPGKEREVVAGISSGGGTYYADSVKGRFTISRDNAKNTVYLQMNSLKPEDTAVYYCAKVVYFGWSVQYYYWGQGTQVTVSS",
    "result": "low polyreactivity"
  },
  {
    "monomer sequence": "QVQLVESGGGLVHAGGSLRLSCAASGSIFYEYAMGWYRQAPGKERELVASINRGGGSTYYADSVKGRFTISRDNAKNTVYLQMNSLKPEDTAVYYCAAQWKYRQSYLDYYWGQGTQVNVSS",
    "result": "low polyreactivity"
  },
  {
    "monomer sequence": "QVQLVESGGGLFQAGGSLRLSCAASGINFYKYSMGWYRQAHRKERELVAAITSGGGRTYYADSVKGRFTISRDNAKNTVYLQMNSLKPEDTAVYYCAATRPASYAAYDYWGQGTQVTVSS",
    "result": "high polyreactivity"
  },
  {
    "monomer sequence": "QVQLVESGGGLVQAGGSLRLSCAASGSILGQNGMGWYRQAPWKERELVAGITWSGGSTYYADSVKGRFTISRDNAKNTVYLQMNSLKPEDTAVYYCARRGYYAPYYYWGQGTQVTVSS",
    "result": "high polyreactivity"
  }
]

[in] Recorded polyreactivity (PSR sort gate) of `QVQLVESGGGLVQAGGSLRLSCAASGSIFARYAMGWYRQAPGKERELVAAITYSGGSTYYADSVKGRFTISRYNAKNTVYLQMNSLKPEDTAVYYCALRSGYGRWYPYDYWGQGTQVTVSS` , please.
[out] high polyreactivity
